Molecular target: T1, monkey MSLN full-length protein (NCBI: XP_028696439.1) expressed on HEK293T-monkey MSLN cells (monkey)
T1 construct: Whole encoded precursor
T1 chain: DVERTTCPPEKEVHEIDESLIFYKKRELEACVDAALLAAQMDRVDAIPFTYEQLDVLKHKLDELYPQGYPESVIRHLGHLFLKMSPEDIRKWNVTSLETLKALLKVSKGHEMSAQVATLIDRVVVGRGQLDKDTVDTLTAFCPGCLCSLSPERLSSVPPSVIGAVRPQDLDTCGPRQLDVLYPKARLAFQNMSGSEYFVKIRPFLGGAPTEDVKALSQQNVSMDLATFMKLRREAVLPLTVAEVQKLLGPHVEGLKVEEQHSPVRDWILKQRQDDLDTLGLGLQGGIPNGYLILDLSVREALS
Experiment: FACS on HEK293T-monkey MSLN cells
metric: Maximum mean fluorescence intensity

1. S009-F4-127.10 (antibody, human IgG1, kappa, V domains shown, human-murine chimeric antibody, human IgG1/kappa constant regions) VH: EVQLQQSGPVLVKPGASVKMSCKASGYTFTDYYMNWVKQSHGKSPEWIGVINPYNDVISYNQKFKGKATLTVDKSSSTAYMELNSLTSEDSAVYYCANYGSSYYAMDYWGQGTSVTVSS VL: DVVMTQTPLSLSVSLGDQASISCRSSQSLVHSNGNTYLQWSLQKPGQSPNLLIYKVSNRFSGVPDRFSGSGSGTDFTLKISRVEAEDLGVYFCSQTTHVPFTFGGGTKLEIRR ... 41100
2. S009-F6-62.5 (antibody, human IgG1, kappa, V domains shown, human-murine chimeric antibody, human IgG1/kappa constant regions) VH: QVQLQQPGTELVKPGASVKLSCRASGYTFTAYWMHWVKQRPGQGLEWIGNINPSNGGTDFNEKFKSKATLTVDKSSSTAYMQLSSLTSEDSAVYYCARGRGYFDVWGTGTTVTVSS VL: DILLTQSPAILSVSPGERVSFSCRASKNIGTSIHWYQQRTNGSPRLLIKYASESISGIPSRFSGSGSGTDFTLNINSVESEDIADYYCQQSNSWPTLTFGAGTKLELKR ... 202
3. S009-F4-94.15 (antibody, human IgG1, kappa, V domains shown, human-murine chimeric antibody, human IgG1/kappa constant regions) VH: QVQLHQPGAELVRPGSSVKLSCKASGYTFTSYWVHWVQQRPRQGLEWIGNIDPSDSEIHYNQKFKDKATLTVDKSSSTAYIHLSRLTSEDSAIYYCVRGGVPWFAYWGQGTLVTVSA VL: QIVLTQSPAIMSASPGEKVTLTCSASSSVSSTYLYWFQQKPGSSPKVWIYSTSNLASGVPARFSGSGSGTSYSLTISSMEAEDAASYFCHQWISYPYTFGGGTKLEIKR ... 29900
